Where these numbers come from: the supplement of paper PMC6555819

System: RARg:RXRa (NR concentration 270 nM, RXRa partner concentration 90 nM)
TEST DETAILS: PBM binding z-score (relative to random genomic background probes); higher = stronger binding; sequences stand for … in GC…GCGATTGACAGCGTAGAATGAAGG
Here the recorded PBM binding z-score is given for each entry.

So, `GCTATTAGTTGAAAGGGCATCCGAATGATTCTCG` ? Its PBM binding z-score was 1.04

Consider `ACTTACGGGTCAACGAGGTTTTAGCACGCGTATA` . Its measured PBM binding z-score is 5.26

Short answer for `GATACCGGGTCAGCTAGAGGCCAGAGTATGGAAA` : PBM binding z-score was 5.9

New cases:
Note to self: PBM binding z-score recorded for `ATCTCTAGGTAAGACTCAGTCCAGTGAAGAACGC` was 0.208

The measured PBM binding z-score associated with `TAGCCTAGGTCATGAGGGCCAGTATAGTGTCGGC` reads 4.06

According to the records, this sequence `CCATACGGGTCACTCCAGGTTATAGCATCGGAGT` displays PBM binding z-score of 4.24

Memo: `CGAACTAGGTCATCCAGGACGGTGAATACATTGA` , reported PBM binding z-score: 4.14

What the record says about `TCTAGTTGGTCAAAGCTCACACACTCGAAATGCG` : PBM binding z-score is 0.584

// PBM binding z-score value for `CCACGGAGGACAACAGGAGGTCAGAGCTGCCAGA` : 3.61

Sample `CGTCAAAGTTCAACTAAGGTAACGTAGAGCACGC` ; PBM binding z-score observed: 6.15

// PBM binding z-score value for `TCTTGTAGATCAAAGGTTGAGAAAGCCGAAGCCT` : 0.326

get_value(item= `ACTCGGAGGACAAAGGTCAGAGCTACGCCAGTGA` , readout=PBM binding z-score) returns 5.92

Notebook: `CGTCAAAGTTCAACTAAGGTACCGTAAAGCACGC` , PBM binding z-score read as 5.81

// sample `TATACAGGGTCAAAGGCCAGAGGACGAATGTCGA` , its PBM binding z-score was 5.92

Quick note, PBM binding z-score for `TGTCAAAGTTCAAAGGTACCGTAAGTATCCACAC` landed at 5.69

Lab book: PBM binding z-score of `GCTCCTAGGTCAGGTTGGTCAGCTAACGGGTACG` noted as 2.91

Lab note: `TTACCAAGGTGAGCTTAGGTCGTTGATCCAACTC` gave PBM binding z-score of 0.36

sequence `CCTTACGGGTCACTCCAGGTTATAGCGTCGGAGT` , PBM binding z-score observed: 4.55

The reported value for `ATCTCTAGGTAAACATAGTTCAGTGAATGCAAAT` in terms of PBM binding z-score is 0.884

What the record says about `ACTTACGGGCCAACGAGGTTATAGCACGCGTATA` : PBM binding z-score is 0.977

So for `TCTTGTAGATCAGCAGGTTAAAAAAGCTGGCCAA` , the logged PBM binding z-score turned out to be -0.388

Data point: `GCTCGGAGGACACGGTCAGAGCTTTGTCCGTAGA` ; PBM binding z-score = 0.822

get_value(item= `CCTACTAGGCCAAAGGTCATTGATTCCAATGCTC` , readout=PBM binding z-score) returns 6.22

`CGAACTAGGTCATTGACAGGCCAGTGAATAGTAA` yielded PBM binding z-score of 4.45

Entry `GCTGCTAGGTGAACTGATGGTCAGCTAAAGCTCG` ; PBM binding z-score = 0.956
